Header: IC50 / the protein given by its sequence / multiple publications
Target chain: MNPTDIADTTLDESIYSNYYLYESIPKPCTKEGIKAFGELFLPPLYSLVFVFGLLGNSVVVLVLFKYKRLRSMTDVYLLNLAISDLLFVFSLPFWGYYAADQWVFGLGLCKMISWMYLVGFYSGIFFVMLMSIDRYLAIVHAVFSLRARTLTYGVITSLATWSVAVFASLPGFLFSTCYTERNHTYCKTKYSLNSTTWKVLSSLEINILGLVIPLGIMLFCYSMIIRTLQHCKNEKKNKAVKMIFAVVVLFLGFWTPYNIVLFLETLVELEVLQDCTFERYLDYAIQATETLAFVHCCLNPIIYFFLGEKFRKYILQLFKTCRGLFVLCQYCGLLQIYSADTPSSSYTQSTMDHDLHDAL

Solved cases (2 shown):
• C=CCN(C(=O)OCc1ccccc1)C1CCN(CCC(CN2C(=O)N[C@H](Cc3c[nH]c4ccccc34)C2=O)c2cccc(Cl)c2)CC1 (some centres not stated) = > 1000 nM
• CCCCC1C(=O)N(C[C@H]2CC[C@H](OCC)CC2)CCC12CCN(C1(C)CCN(C(=O)c3c(C)ncnc3C)CC1)CC2 (some centres not stated) = > 50000 nM

Exercise: State its IC50 for this compound: C=CCN(C(=O)OCc1ccccc1)C1CCN(CCC(C)(CN2C(=O)N[C@H](Cc3c[nH]c4ccccc34)C2=O)c2cccc(Cl)c2)CC1 (some centres not stated)
Solution: > 1000 nM

Exercise: Kindly indicate its recorded IC50. Item: `c1ccc(CNCc2ccc(CN(Cc3nc4ccccc4[nH]3)[C@H]3CCCc4cccnc43)cc2)nc1`
Solution: > 10000 nM

Exercise: Name the recorded IC50 of the compound listed here: CCN(C(=O)OCc1ccccc1)C1CCN(CCC(CN2C(=O)N[C@H](Cc3c[nH]c4ccccc34)C2=O)c2cccc(Cl)c2)CC1 (some centres not stated)
Solution: > 1000 nM

Exercise: Please give the documented IC50 of C=CCN(C(=O)OCc1ccccc1)C1CCN(CCC(Cn2cnc3ccccc32)c2ccccc2)CC1 (configuration not stated)
Solution: > 1000 nM

Exercise: Look up IC50 of C=CCN(C(=O)OCc1ccc([N+](=O)[O-])cc1)C1CCN(CCC(C)(Cn2cnc3ccccc32)c2ccccc2)CC1 (configuration not stated) and report it.
Solution: > 1000 nM
